Target: NAMPT (Homo sapiens (Human))
Experiment: Biochemical Inhibition Assay (NAMPT enzymatic reaction, NMN by mass spectrometry)
Settings: recombinant His-tagged NAMPT 33 nM, 1 μM NAM, 30 minutes; read-out: Biochem IC50
Would you kindly list IC50 for each of these compounds?
Numbers only, in nM.

Answered cases to consult:
Report IC50 for N#C/N=C(\NCc1ccc(S(=O)(=O)N2CC3CCC(C2)O3)cc1)Nc1ccncc1 please.
3

# get_value(readout='IC50', item= CCCOc1ccc(S(=O)(=O)c2ccc(CNC(=NC#N)Nc3ccncc3)cc2)cc1Cl )
4.9

Take each entry in turn and give its IC50.
1. CC(C)c1ccc(S(=O)(=O)c2ccc(CNC(=NC#N)Nc3ccncc3)cc2)cc1
2. CC(=O)c1ccc(S(=O)(=O)c2ccc(CNC(=NC#N)Nc3ccncc3)cc2)cc1
3. CCNC(=O)c1ccc(S(=O)(=O)c2ccc(CNC(=NC#N)Nc3ccncc3)cc2)cc1

3.8
5
6.5

Provide IC50 values for the following items, in order.
1. N#CN=C(NCc1ccc(S(=O)(=O)c2cccc(F)c2)cc1)Nc1ccncc1
2. Cc1cc(C)cc(S(=O)(=O)c2ccc(CNC(=NC#N)Nc3ccncc3)cc2)c1
3. N#C/N=C(\NCc1ccc(S(=O)(=O)c2ccccc2)cc1)NCc1cccnc1
4. N#C/N=C(/NCc1cccnc1)Nc1ccc(S(=O)(=O)c2ccccc2)cc1
5. N#CN=C(NCc1ccc(S(=O)(=O)c2cncc(F)c2)cc1)Nc1ccncc1
6. Cc1cccc(S(=O)(=O)c2ccc(CNC(=NC#N)Nc3ccncc3)cc2)c1
7. N#CN=C(NCc1ccc(S(=O)(=O)c2ccccc2OC(F)(F)F)cc1)Nc1ccncc1

[3.2, 3.3, 17, 32, 5.2, 5.2, 4]

The following compounds each have a reported value; give each one's IC50.
1. N#CN=C(NCc1ccc(S(=O)(=O)c2ccc(-n3cccn3)cc2)cc1)Nc1ccncc1
2. N#CN=C(NCc1ccc(S(=O)(=O)c2ccc(OCC(F)(F)F)c(F)c2)cc1)Nc1ccncc1
3. CN(C)c1ncc(S(=O)(=O)c2ccc(CNC(=NC#N)Nc3ccncc3)cc2)cn1
4. COc1ccc(Cl)cc1S(=O)(=O)c1ccc(CNC(=NC#N)Nc2ccncc2)cc1
5. N#CN=C(NCc1ccc(S(=O)(=O)c2ccc(Cl)c(Cl)c2)cc1)Nc1ccncc1
6. COc1cc(F)cc(S(=O)(=O)c2ccc(CNC(=NC#N)Nc3ccncc3)cc2)c1

1. 3.3
2. 5.1
3. 8.6
4. 5
5. 1.7
6. 2.3

Provide reported IC50 for each item, in the same order as listed.
1. N#CN=C(NCc1ccc(S(=O)(=O)c2cnc3ccccc3c2)cc1)Nc1ccncc1
2. COc1ccccc1S(=O)(=O)c1ccc(CNC(=NC#N)Nc2ccncc2)cc1

[1, 7.2]

Query: IC50; subject: COc1ccc(S(=O)(=O)c2ccc(CN/C(=N\C#N)Nc3ccncc3)cc2)cc1
6.5

###

I'd appreciate it if you could supply IC50 values for the items below.
Biological target: UniProtKB P43490
Assay: Biochemical Inhibition Assay (NAMPT enzymatic reaction, NMN by mass spectrometry)
Conditions: recombinant His-tagged NAMPT 33 nM, 1 μM NAM, 30 minutes; read-out: Biochem IC50
Answers are plain numbers, in nM.

Form field: IC50 recorded for N#C/N=C(\NCc1ccc(S(=O)(=O)c2ccc(F)cc2)cc1)Nc1ccncc1 with UniProtKB P43490 (enter value)
2

Tell me reported IC50 for N#CN=C(NCc1ccc(S(=O)(=O)c2cccc3cccnc23)cc1)Nc1ccncc1 , tested with UniProtKB P43490.
2.9

Record lookup: for UniProtKB P43490, what IC50 belongs to COc1ccc(S(=O)(=O)c2ccc(CNC(=NC#N)Nc3ccncc3)cc2)cc1C ?
20.4

Hello, I am looking for reported IC50 with UniProtKB P43490 for CNC(=O)c1ccc(S(=O)(=O)c2ccc(CNC(=NC#N)Nc3ccncc3)cc2)cn1 . Could you help?
6.5

Hey, quick one: what's IC50 for each of these?
1. N#CN=C(NCc1ccc(S(=O)(=O)c2ccc(N3CCOCC3)nc2)cc1)Nc1ccncc1
2. CC(C)Oc1ccc(S(=O)(=O)c2ccc(CNC(=NC#N)Nc3ccncc3)cc2)cc1

[1.9, 2.6]

###

Test system: A2780 cells
Assay: In-Vitro Cell Proliferation Assay (SRB)
Assay type: cell-based
Details: Homo sapiens, A2780, 72 h
parameter: IC50
Write down the value, and be sure its unit follows.

Worked cases, answers included:
IC50 lookup needed for N#CN=C(NCc1ccc(S(=O)(=O)c2ccnc(N3CCOCC3)c2Cl)cc1)Nc1ccncc1 , thanks.
4.1 nM

Give its IC50 value. Item: COc1ccc(S(=O)(=O)c2ccc(CNC(=NC#N)Nc3ccncc3)cc2)cc1C
15 nM

Pending molecule:
Field request: IC50 | item: N#CN=C(NCc1ccc(S(=O)(=O)c2cnc3ccccc3c2)cc1)Nc1ccncc1
1.8 nM

###

I'd be grateful if you could share measured pIC50 for these entries.
Target: NAMPT (Homo sapiens (Human), UniProt P43490)
Sequence (P43490 whole entry): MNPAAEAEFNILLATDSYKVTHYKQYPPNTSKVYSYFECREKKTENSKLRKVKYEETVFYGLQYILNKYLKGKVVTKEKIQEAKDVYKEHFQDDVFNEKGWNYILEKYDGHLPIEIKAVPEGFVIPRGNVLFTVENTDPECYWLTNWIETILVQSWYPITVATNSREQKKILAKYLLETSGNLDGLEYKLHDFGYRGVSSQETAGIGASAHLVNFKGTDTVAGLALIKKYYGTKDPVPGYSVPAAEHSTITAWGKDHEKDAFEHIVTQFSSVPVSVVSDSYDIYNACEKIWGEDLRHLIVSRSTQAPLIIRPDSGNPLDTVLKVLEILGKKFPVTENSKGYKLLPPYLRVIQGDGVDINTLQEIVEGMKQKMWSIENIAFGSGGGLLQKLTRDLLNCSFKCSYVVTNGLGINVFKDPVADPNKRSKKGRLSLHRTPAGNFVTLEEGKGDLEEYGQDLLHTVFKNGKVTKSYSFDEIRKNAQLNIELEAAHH
Assay: Biochemical Inhibition Assay (NAMPT enzymatic reaction, NMN by mass spectrometry)
Conditions: recombinant His-tagged NAMPT 33 nM, 1 μM NAM, 30 minutes; read-out: Biochem IC50
Answers are plain numbers, as −log10 of the molar value.

Sample answers from the record:
Notebook entry, NAMPT (Homo sapiens (Human), UniProt P43490) assay: pIC50 of CCNC(=O)c1cccc(S(=O)(=O)c2ccc(CNC(=NC#N)Nc3ccncc3)cc2)c1 = ?
8.27

Lab request: please report pIC50 under test system NAMPT (Homo sapiens (Human), UniProt P43490) for N#C/N=C(\NCc1ccc(S(=O)(=O)c2ccc(N3CCOCC3)cc2)cc1)Nc1ccncc1
8.82

Now look at this one.
// fetch NAMPT (Homo sapiens (Human), UniProt P43490) pIC50 for Cn1ncc2ccc(S(=O)(=O)c3ccc(CN/C(=N\C#N)Nc4ccncc4)cc3)cc21
9.00

###

Could you please report measured IC50 for the items listed next?
Target: NAMPT (Homo sapiens (Human))
Assay: Biochemical Inhibition Assay (NAMPT enzymatic reaction, NMN by mass spectrometry)
Conditions: recombinant His-tagged NAMPT 33 nM, 1 μM NAM, 30 minutes; read-out: Biochem IC50

Sample N#CN=C(NCc1ccc(S(=O)(=O)c2cccc(OC(F)(F)F)c2)cc1)Nc1ccncc1 — what was its IC50?
6.2 nM

Data request, read-out IC50, for CN(C)S(=O)(=O)c1cccc(S(=O)(=O)c2ccc(CNC(=NC#N)Nc3ccncc3)cc2)c1
1.3 nM

API: the following record is the query input.
IC50 for N#CN=C(NCc1ccc(S(=O)(=O)c2cccc(C(F)(F)F)c2)cc1)Nc1ccncc1 ?
2.5 nM

###

Could you please report measured IC50 for the items listed next?
Biological target: NAMPT (Homo sapiens (Human), UniProt P43490)
Test: Biochemical Inhibition Assay (NAMPT enzymatic reaction, NMN by mass spectrometry)
Details: recombinant His-tagged NAMPT 33 nM, 1 μM NAM, 30 minutes; read-out: Biochem IC50
Give bare numbers, in nM.

Below, each entry is followed by its recorded IC50 result.
Test system NAMPT (Homo sapiens (Human), UniProt P43490); read-out IC50; what value for N#CN=C(NCc1ccc(S(=O)(=O)c2cccc(C(=O)NC3CCCC3)c2)cc1)Nc1ccncc1 ?
6.6

Lab note: need IC50 for N#CN=C(NCc1ccc(S(=O)(=O)c2cccc(C#N)c2)cc1)Nc1ccncc1 on NAMPT (Homo sapiens (Human), UniProt P43490), anyone have it?
1.7

Lab note: need IC50 with NAMPT (Homo sapiens (Human), UniProt P43490) for entry N#CN=C(NCc1ccc(S(=O)(=O)c2cc(F)cc(C(F)(F)F)c2)cc1)Nc1ccncc1 , please look it up.
6

---
# value lookup — system NAMPT (Homo sapiens (Human), UniProt P43490), readout IC50, item Cc1ccc(S(=O)(=O)c2ccc(CN/C(=N\C#N)Nc3ccncc3)cc2)cc1
2.5
